The following compounds are shown together with reported Dmax values.
target entity: HiBit-BRG1 (Homo sapiens, UniProt P51532)
Construct: expressed in transfected cells
Sequence (P51532 whole entry): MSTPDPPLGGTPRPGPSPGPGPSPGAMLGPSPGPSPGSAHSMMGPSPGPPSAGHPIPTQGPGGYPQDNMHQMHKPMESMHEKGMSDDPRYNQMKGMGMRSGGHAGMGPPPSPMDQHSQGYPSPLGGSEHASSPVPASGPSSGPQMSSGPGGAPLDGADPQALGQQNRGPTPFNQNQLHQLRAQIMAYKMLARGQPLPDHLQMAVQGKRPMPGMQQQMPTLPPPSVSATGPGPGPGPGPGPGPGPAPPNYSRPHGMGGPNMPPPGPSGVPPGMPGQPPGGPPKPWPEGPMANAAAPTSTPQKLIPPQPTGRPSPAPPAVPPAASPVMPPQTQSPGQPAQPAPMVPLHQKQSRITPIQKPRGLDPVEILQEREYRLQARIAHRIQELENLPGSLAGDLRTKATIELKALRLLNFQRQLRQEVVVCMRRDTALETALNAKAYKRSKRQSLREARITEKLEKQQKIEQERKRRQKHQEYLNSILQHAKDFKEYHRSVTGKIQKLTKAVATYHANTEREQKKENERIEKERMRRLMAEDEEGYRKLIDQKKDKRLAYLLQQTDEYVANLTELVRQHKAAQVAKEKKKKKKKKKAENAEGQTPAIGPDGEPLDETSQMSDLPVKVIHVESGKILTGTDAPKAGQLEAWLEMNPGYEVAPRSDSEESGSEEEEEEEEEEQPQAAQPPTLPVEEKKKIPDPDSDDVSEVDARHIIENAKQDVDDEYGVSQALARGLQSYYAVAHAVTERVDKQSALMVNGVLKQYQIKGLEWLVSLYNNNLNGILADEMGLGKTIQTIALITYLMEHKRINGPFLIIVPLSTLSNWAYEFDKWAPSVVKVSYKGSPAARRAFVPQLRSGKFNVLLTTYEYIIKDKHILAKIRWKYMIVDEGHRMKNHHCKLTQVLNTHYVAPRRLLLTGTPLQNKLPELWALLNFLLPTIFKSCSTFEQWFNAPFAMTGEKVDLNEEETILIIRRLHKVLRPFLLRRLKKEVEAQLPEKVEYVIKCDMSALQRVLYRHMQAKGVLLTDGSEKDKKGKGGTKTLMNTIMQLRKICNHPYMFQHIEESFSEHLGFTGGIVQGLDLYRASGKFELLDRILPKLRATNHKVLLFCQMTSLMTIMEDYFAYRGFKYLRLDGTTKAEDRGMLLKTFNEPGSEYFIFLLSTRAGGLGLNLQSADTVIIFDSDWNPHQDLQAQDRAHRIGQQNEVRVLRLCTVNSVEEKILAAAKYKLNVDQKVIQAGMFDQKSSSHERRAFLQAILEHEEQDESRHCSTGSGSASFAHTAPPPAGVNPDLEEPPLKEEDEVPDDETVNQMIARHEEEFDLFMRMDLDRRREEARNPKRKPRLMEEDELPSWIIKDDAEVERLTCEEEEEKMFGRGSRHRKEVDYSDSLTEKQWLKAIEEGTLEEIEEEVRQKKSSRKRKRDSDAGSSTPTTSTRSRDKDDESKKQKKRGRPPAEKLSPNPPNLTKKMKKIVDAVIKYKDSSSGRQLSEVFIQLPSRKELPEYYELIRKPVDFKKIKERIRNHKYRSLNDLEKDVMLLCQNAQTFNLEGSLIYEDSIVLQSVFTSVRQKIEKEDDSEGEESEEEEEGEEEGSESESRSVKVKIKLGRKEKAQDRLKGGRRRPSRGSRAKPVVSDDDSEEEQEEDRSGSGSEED
protocol text: HiBit-BRG1 cell-based degradation assay (Nano-Glo HiBiT Lytic Detection)
reported conditions: HeLa cells expressing HiBit-BRG1 and LgBit, 24 h; read-out: BRG1 HiBit Degradation Maximum (%)
Structures can show the parent of a compound that is named as a salt.

{"compound": "Cc1ncsc1-c1ccc(CNC(=O)[C@@H]2C[C@@H](O)CN2C(=O)[C@@H](NC(=O)CCC(=O)NCc2ccc(CCOc3cc(-c4ccccc4O)nnc3N)cc2)C(C)(C)C)cc1", "Dmax": "< 50%"}
{"compound": "Cc1ncsc1-c1ccc([C@H](C)NC(=O)[C@@H]2C[C@@H](O)CN2C(=O)[C@@H](c2cc(OCCN3CCC(O)(C(=O)NCc4ccc(CCOc5cc(-c6ccccc6O)nnc5N)cc4)CC3)no2)C(C)C)cc1", "Dmax": "> 75%"}
{"compound": "Nc1nnc(-c2cccc(Cl)c2O)cc1OCCc1ccc(CNCCCCCOc2cccc3c2C(=O)N(C2CCC(=O)NC2=O)C3=O)cc1 (centres unmarked)", "Dmax": "< 50%"}
{"compound": "Cc1ncsc1-c1ccc([C@H](C)NC(=O)[C@@H]2C[C@@H](O)CN2C(=O)[C@@H](NC(=O)CCCCCCCCCCN2C[C@@H]3CN(Cc4ccc(CCOc5cc(-c6ccccc6O)nnc5N)cc4)C[C@@H]3C2)C(C)(C)C)cc1", "Dmax": "> 50%"}
{"compound": "Nc1nnc(-c2ccccc2O)cc1OCCc1ccc(C(=O)NCCCCCCCCCCCCCCC(=O)NCc2ccc(S(=O)(=O)Nc3cccc4c(Cl)c[nH]c34)cc2)cc1", "Dmax": "< 50%"}
{"compound": "Cc1ncsc1-c1ccc([C@H](C)NC(=O)[C@@H]2C[C@@H](O)CN2C(=O)[C@@H](c2cc(OCCN3C[C@H]4CC[C@@H](C3)N4C(=O)c3ccc(CCOc4cc(-c5ccccc5O)nnc4N)cc3)no2)C(C)C)cc1", "Dmax": "> 75%"}
{"compound": "Cc1ncsc1-c1ccc([C@H](C)NC(=O)[C@@H]2C[C@@H](O)CN2C(=O)[C@@H](NC(=O)CCCCCCCCCCCCCCCC(=O)NCc2ccc(CCOc3cc(-c4ccccc4O)nnc3N)cc2)C(C)(C)C)cc1", "Dmax": "> 50%"}
{"compound": "CN(CCCCCNc1cccc2c1C(=O)N(C1CCC(=O)NC1=O)C2=O)Cc1ccc(CCOc2cc(-c3ccccc3O)nnc2N)cc1 (centres unmarked) [Compound 156, formate]", "Dmax": "> 50%"}
{"compound": "Nc1nnc(-c2ccccc2O)cc1OCCc1ccc(C(=O)NCCCCCNc2ccc3c(c2)C(=O)N(C2CCC(=O)NC2=O)C3=O)cc1 (centres unmarked)", "Dmax": "< 50%"}
{"compound": "Cc1ncsc1-c1ccc(CNC(=O)[C@@H]2C[C@@H](O)CN2C(=O)[C@@H](NC(=O)CCCCCCCCCCCCCC(=O)N(C)Cc2ccc(CCOc3cc(-c4ccccc4O)nnc3N)cc2)C(C)(C)C)cc1", "Dmax": "< 50%"}

Okay, next one:
input: Can you look up the measured Dmax of Nc1nnc(-c2ccccc2O)cc1OCCc1ccc(CNC(=O)CCCCNc2ccc3c(c2)C(=O)N(C2CCC(=O)NC2=O)C3=O)cc1 (centres unmarked) for me?
output: < 50%

----------
Dmax for assorted molecules
target entity: HiBit-BRG1 (Homo sapiens)
Construct: expressed in transfected cells
protocol text: HiBit-BRG1 cell-based degradation assay (Nano-Glo HiBiT Lytic Detection)
reported conditions: HeLa cells expressing HiBit-BRG1 and LgBit, 24 h; read-out: BRG1 HiBit Degradation Maximum (%)

Here are 2 molecules together with their reported answers.
{"molecule": "CN(CCNC(=O)COc1cccc2c1C(=O)N(C1CCC(=O)NC1=O)C2=O)CCNC(=O)c1ccc(CCOc2cc(-c3ccccc3O)nnc2N)cc1 (stereo not drawn)", "result": "< 50%"}
{"molecule": "CN(CCNC(=O)CN1CCN(c2cc(-c3ccccc3O)nnc2N)CC1)CCNc1cccc2c1C(=O)N(C1CCC(=O)NC1=O)C2=O (stereo not drawn)", "result": "< 50%"}

Proceed to the following item.
input: Quick one: Dmax of Cc1ncsc1-c1ccc(CNC(=O)[C@@H]2C[C@@H](O)CN2C(=O)[C@@H](NC(=O)CCN2CC(C(=O)NCc3ccc(CCOc4cc(-c5ccccc5O)nnc4N)cc3)C2)C(C)(C)C)cc1 ?
output: < 50%

----------
target entity: HiBit-BRG1 (Homo sapiens, UniProt P51532)
Construct: expressed in transfected cells
protocol text: HiBit-BRG1 cell-based degradation assay (Nano-Glo HiBiT Lytic Detection)
reported conditions: HeLa cells expressing HiBit-BRG1 and LgBit, 24 h; read-out: BRG1 HiBit Degradation IC50
Reported DC50 values are given for each entry in this list.

Some solved cases for reference:
{"compound": "Cc1ncsc1-c1ccc([C@H](C)NC(=O)[C@@H]2C[C@@H](O)CN2C(=O)[C@@H](NC(=O)CCCCN2CCN(CCC(=O)NCc3ccc(CCOc4cc(-c5ccccc5O)nnc4N)cc3)CC2)C(C)(C)C)cc1 [Compound 262]", "readout": "DC50", "result": "> 1 µM"}
{"compound": "Nc1nnc(-c2ccccc2O)cc1OCCc1ccc(CNC(=O)CCCCNc2cccc3c2CN(C2CCC(=O)NC2=O)C3=O)cc1 (stereo not drawn) [Compound 2]", "readout": "DC50", "result": "> 1 µM"}

Next compound, DC50 to be filled in.
input: Entry under review: Cc1ncsc1-c1ccc(CNC(=O)[C@@H]2C[C@@H](O)CN2C(=O)[C@@H](NC(=O)CCC(=O)NCc2ccc(CCOc3cc(-c4ccccc4O)nnc3N)cc2)C(C)(C)C)cc1 [Compound 29] . Reported DC50?
output: > 1 µM

----------
target entity: HiBit-BRG1 (Homo sapiens, UniProt P51532)
Construct: expressed in transfected cells
protocol text: HiBit-BRG1 cell-based degradation assay (Nano-Glo HiBiT Lytic Detection)
reported conditions: HeLa cells expressing HiBit-BRG1 and LgBit, 24 h; read-out: BRG1 HiBit Degradation IC50
readout: DC50

Known DC50 results, listed for orientation:
{"compound structure string": "Cc1ncsc1-c1ccc([C@H](C)NC(=O)[C@@H]2C[C@@H](O)CN2C(=O)[C@@H](NC(=O)CCCCCCCCCCCCCCCC(=O)NCc2ccc(CCOc3cc(-c4ccccc4O)nnc3N)cc2)C(C)(C)C)cc1", "target entity": "HiBit-BRG1 (Homo sapiens, UniProt P51532)", "DC50": "> 100 nM"}
{"compound structure string": "Nc1nnc(-c2ccccc2O)cc1OCCc1ccc(C(=O)NCCCC(=O)NCc2ccc(S(=O)(=O)Nc3cccc4c(Cl)c[nH]c34)cc2)cc1", "target entity": "HiBit-BRG1 (Homo sapiens, UniProt P51532)", "DC50": "> 1000 nM"}

As a next step, examine the molecule that follows.
input: Need DC50, item Cc1ncsc1-c1ccc(CNC(=O)[C@@H]2C[C@@H](O)CN2C(=O)[C@@H](NC(=O)COCCOCC(=O)NCc2ccc(CCOc3cc(-c4ccccc4O)nnc3N)cc2)C(C)(C)C)cc1
output: > 1000 nM

----------
target entity: HiBiT-BRM (Homo sapiens, UniProt P51531)
Construct: expressed in transfected cells
Sequence (P51531 whole entry): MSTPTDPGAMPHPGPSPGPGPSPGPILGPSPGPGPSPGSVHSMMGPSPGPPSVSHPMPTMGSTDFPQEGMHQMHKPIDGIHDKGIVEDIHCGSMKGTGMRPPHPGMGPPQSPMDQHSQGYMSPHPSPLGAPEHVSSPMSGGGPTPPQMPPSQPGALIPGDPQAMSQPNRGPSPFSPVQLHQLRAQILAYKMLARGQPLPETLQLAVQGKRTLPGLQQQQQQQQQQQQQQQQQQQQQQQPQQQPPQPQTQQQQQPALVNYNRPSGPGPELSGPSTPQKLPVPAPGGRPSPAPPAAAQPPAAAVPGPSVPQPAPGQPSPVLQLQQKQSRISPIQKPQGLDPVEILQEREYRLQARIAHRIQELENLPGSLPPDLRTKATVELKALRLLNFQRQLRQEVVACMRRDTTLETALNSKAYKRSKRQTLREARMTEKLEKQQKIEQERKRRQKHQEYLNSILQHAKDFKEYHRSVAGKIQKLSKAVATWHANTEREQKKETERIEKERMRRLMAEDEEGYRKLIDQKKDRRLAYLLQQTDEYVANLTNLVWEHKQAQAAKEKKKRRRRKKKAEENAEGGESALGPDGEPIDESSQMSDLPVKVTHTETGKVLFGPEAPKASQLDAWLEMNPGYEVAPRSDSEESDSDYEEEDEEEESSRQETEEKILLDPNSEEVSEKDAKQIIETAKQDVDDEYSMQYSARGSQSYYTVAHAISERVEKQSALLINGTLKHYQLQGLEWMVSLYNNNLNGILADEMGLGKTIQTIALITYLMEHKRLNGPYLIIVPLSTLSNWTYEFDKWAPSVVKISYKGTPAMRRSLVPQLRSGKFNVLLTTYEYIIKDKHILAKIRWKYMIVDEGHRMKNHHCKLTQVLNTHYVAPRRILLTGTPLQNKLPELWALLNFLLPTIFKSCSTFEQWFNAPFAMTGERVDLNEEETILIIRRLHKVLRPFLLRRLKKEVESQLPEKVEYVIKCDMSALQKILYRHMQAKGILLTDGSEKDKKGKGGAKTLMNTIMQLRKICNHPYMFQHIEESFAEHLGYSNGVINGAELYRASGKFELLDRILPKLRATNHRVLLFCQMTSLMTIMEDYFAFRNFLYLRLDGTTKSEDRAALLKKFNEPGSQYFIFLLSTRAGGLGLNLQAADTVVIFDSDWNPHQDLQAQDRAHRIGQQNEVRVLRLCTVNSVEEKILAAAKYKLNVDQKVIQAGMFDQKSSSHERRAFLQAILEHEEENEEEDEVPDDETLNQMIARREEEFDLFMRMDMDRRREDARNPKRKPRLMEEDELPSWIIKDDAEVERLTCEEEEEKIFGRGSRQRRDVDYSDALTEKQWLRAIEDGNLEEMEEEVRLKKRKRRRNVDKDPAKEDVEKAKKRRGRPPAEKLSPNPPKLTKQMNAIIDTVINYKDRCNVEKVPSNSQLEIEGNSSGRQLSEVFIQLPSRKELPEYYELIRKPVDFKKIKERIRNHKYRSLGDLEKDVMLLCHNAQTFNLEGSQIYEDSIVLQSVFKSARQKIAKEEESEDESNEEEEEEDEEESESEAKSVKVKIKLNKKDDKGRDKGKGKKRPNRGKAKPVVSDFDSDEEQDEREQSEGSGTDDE
protocol text: HiBiT-BRM cell-based degradation assay (Nano-Glo HiBiT Lytic Detection)
reported conditions: HeLa cells expressing HiBiT-BRM, 24 h; read-out: BRM HiBit Degradation IC50
readout: DC50

{"compound": "Cc1ncsc1-c1ccc(CNC(=O)[C@@H]2C[C@@H](O)CN2C(=O)[C@@H](NC(=O)CCCCCCCCCCCCCCC(=O)NCc2ccc(CCOc3cc(-c4ccccc4O)nnc3N)cc2)C(C)(C)C)cc1", "DC50": "> 0.1 µM"}
{"compound": "Cc1ncsc1-c1ccc(CNC(=O)[C@@H]2C[C@@H](O)CN2C(=O)[C@@H](NC(=O)CCCCCCCCCCCCCC(=O)N(C)Cc2ccc(CCOc3cc(-c4ccccc4O)nnc3N)cc2)C(C)(C)C)cc1", "DC50": "> 0.01 µM"}
{"compound": "Cc1ncsc1-c1ccc(CNC(=O)[C@@H]2C[C@@H](O)CN2C(=O)[C@@H](NC(=O)CCCCCCCCC(=O)NCc2ccc(CCN(C)c3cc(-c4ccccc4O)nnc3N)cc2)C(C)(C)C)cc1", "DC50": "> 0.1 µM"}

input: What value of DC50 has been recorded for this entry: Nc1nnc(-c2ccccc2O)cc1OCCc1ccc(CNC(=O)CCCCNc2ccc3nnn(C4CCC(=O)NC4=O)c(=O)c3c2)cc1 (centres unmarked)
output: > 1 µM

input: I would be grateful if you could share the reported DC50 for Nc1nnc(-c2ccccc2O)cc1NCCc1ccc(CNCCN2CCN(c3cccc4c3C(=O)N(C3CCC(=O)NC3=O)C4=O)CC2)cc1 (centres unmarked) .
output: > 1 µM

input: Value lookup for DC50; key = Cc1ncsc1-c1ccc([C@H](C)NC(=O)[C@@H]2C[C@@H](O)CN2C(=O)[C@@H](c2cc(OCCN3CC4=C(C3)CN(C(=O)c3ccc(CCOc5cc(-c6ccccc6O)nnc5N)cc3)C4)no2)C(C)C)cc1
output: > 0.01 µM

input: Find the recorded DC50 belonging to Nc1nnc(-c2ccccc2O)cc1OCCc1ccc(C(=O)NCCCCNc2ccc3c(c2)C(=O)N(C2CCC(=O)NC2=O)C3=O)cc1 (centres unmarked) and report it.
output: > 1 µM

input: I'd like to know its DC50. The compound in question is Cc1ncsc1-c1ccc(CNC(=O)[C@@H]2C[C@@H](O)CN2C(=O)[C@@H](NC(=O)CCCCCCCCCCCCCC(=O)NCc2ccc(CCOc3cc(-c4ccccc4O)nnc3N)cc2)C(C)C)cc1
output: > 0.1 µM
